# Test system: HOS
# Method: In vitro cytotoxicity evaluated against human bone carcinoma (HOS cell line)
# Format: functional
# Stated Conditions: read-out: ED50 (the source's name)
Let's look at some compounds and their measured EC50.
Number only, in µg/mL; omit the unit.

[
  {
    "Compound": "O=C(O)Cc1cccc2c(O)cc(-c3ccccc3)nc12",
    "Target System": "HOS",
    "Endpoint Unit": "µg/mL",
    "EC50": 0.07
  }
]

Let me check: `O=C(O)Cc1cccc2c(O)cc(-c3ccccc3F)nc12` , system HOS, measured EC50 is 0.04

###

# Test system: KB
# Method: In vitro cytotoxicity evaluated against human epidermoid nasopharynx carcinoma (KB cell line)
# Assay type: functional
# Stated Conditions: read-out: ED50 (the source's name)
Value Kind: EC50

Solved entries (count: 3):
[
  {
    "Compound": "O=C(O)Cc1cccc2c(O)cc(-c3ccccc3F)nc12",
    "EC50": "0.03 µg/mL"
  },
  {
    "Compound": "O=C(O)Cc1cccc2c(O)cc(-c3ccccc3)nc12",
    "EC50": "0.04 µg/mL"
  },
  {
    "Compound": "O=C(O)Cc1ccc2nc(-c3ccccc3F)cc(O)c2c1",
    "EC50": "> 20 µg/mL"
  }
]

Memo: `COC(=O)Cc1cccc2c(O)cc(-c3ccccc3F)nc12` , reported EC50: > 10 µg/mL

Memo: `O=C(O)Cc1ccc2c(O)cc(-c3ccccc3F)nc2c1` , reported EC50: > 20 µg/mL

Memo: `COC(=O)Cc1cccc2c(O)cc(-c3ccccc3)nc12` , reported EC50: > 20 µg/mL
